Compiled record: IC50 values for Chymotrypsinogen B (Homo sapiens, UniProt P17538) across several sources.
measurement.kind: IC50 (nM)

1. Cc1cccc2nc(N[C@@H](C)c3ccccc3)oc(=O)c12    180

1: Cc1c(NC(=O)OC(C)(C)C)ccc2nc(N[C@H](C)c3ccccc3)oc(=O)c12
2: CCOC(=O)c1nn(C(=O)c2cccc(C)c2)c2ccc(NC(=O)CC)cc12
3: CC(C)C[C@@H](CSC1CC(=O)N1C(=O)NCc1ccccc1)NC(=O)[C@@H](NC(=O)OC(C)(C)C)C(C)(C)C (stereo partly specified)
4: CCOC(=O)c1nn(C(=O)c2cccc(C)c2)c2ccc([N+](=O)[O-])cc12
5: CCOC(=O)c1nn(C(=O)c2cccc(C)c2)c2ccc(NC(=O)C3CC3)cc12
Ordering criterion: IC50; begin with the maximum. Lab note: record answer as labels in requested order.
1, 3, 5, 2, 4
